Attribution: patent US20210388087A1

molecular target: human CD137 (human, UniProt Q07011 24-186); assay: SPR Biacore T200, IgG captured on protein A, 25 C;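 also: antigens diluted in ACES running buffer at pH 7.4 were flowed over antibodies held on a CM3 chip bearing amine-coupled protein A, with buffer alone serving as blank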
Sequence (Q07011 24-186 limits assumed): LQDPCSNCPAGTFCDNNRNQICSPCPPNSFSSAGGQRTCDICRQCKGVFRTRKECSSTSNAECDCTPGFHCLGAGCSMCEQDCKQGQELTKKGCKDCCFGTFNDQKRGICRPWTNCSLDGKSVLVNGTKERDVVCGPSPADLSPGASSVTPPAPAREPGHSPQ
MEASUREMENT NAME: kon (M⁻¹ s⁻¹)
Report only the number, with the unit M⁻¹ s⁻¹ understood.

Sure, the documented kon for dBBDu193/L132 (antibody, V domains shown, IgG format; constant regions not specified; also called dBBDu_193 dBBDu.L132) VH: QVQLVESGGGLVQPGRSLRLSCAASGFTFSNAWMHWVRQAPGKGLEWVAQIKDRSNQYATYYAPSVKGRFTISRDDSKNSIYLQMNSLKTEDTAVYYCHYVHYSAASTLLPSFGVDAWGQGTTVTVSS VL: DIVMTQSPLSLPVTPGEPASISCQTSEELVHINRFIFLHWYQQKPGQAPRLLIYKVSNRFSGVPDRFSGSGSGTDFTLKISRVEAEDVGVYYCAQGTSVPFTFGQGTKLEIK is 471

Sure, the documented kon for dBBDu186/L100 (antibody, V domains shown, IgG format; constant regions not specified) VH: QVQLVESGGGLVQPGRSLRLSCAASGFTFSNAWMHWVRQAPGKGLEWVAQIKDRSNQYATYYAPSVKGRFTISRDDSKNSIYLQMNSLKTEDTAVYYCHYVHYAQASTVLPAFGVDAWGQGTTVTVSS VL: DIVMTQSPLSLPVTPGEPASISCSASEELVHINRYIFLHWYQQKPGQAPRLLIYKVYNRFMGVPDRFSGSGSGTDFTLKISRVEAEDVGVYYCGQGSSVPFTFGQGTKLEIK is 391

Sure, the documented kon for dBBDu186/L108 (antibody, V domains shown, IgG format; constant regions not specified) VH: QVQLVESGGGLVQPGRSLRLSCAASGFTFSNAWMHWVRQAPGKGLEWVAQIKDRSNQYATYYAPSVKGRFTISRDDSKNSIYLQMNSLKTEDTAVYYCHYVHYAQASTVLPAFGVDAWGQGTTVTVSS VL: DIVMTQSPLSLPVTPGEPASISCRTSEELLHINRFTFLHWYQQKPGQAPRLLIYKVSNRFMGVPDRFSGSGSGTDFTLKISRVEAEDVGVYYCAQGSAVPFTFGQGTKLEIK is 335
